Data provenance is patent US20230101335A1.

tested on: CRC organoids (APC−/TP53−/SMAD4− triple knockout); experiment: CellTiter-Glo cytotoxicity assay on CRISPR-engineered CRC organoids; conditions: Sus scrofa, read-out: IC50 (uM) ± SD
Attribute measured: IC50 (µM)
Your answer should be a plain number; it is taken to be in µM.

INSERT INTO measurements (mol, system_tested, unit_name, observed_value) VALUES
  ('COc1cccc2c1C(=O)c1c(O)c3c(c(O)c1C2=O)C[C@@](O)(C(=O)CO)C[C@@H]3O[C@H]1C[C@H](N)[C@H](O)[C@H](C)O1', 'CRC organoids (APC−/TP53−/SMAD4− triple knockout)', 'µM', 10.1);

Moving on to the next compound.
Can you share its IC50? I mean this compound: CS(=O)(=O)CCNCc1ccc(-c2ccc3ncnc(Nc4ccc(OCc5cccc(F)c5)c(Cl)c4)c3c2)o1 0.39

* * *

test system: Colo320DM cells; experiment: CellTiter-Glo Luminescent cell viability assay; assay type: cell-based; details: Homo sapiens, COLO 320DM; System: Cell (Colo320DM)
Attribute measured: IC50 (µM)
Your answer should be a plain number; it is taken to be in µM.

Can you share its IC50? I mean this molecule: COc1cccc2c1C(=O)c1c(O)c3c(c(O)c1C2=O)C[C@@](O)(C(=O)CO)C[C@@H]3O[C@H]1C[C@H](N)[C@H](O)[C@H](C)O1 6.99

* * *

system: Colo320DM cells; experiment: CellTiter-Glo Luminescent cell viability assay; type: cell-based; settings: System: Cell (Colo320DM)
Attribute measured: IC50
In your response, put the unit directly after the numeric value.

Can you share its IC50? I mean this compound: O=C1[O][Pt]2([NH][C@@H]3CCCC[C@H]3[NH]2)[O]C1=O 10.5 µM
